Reference source for all entries: paper PMC11211886

- test.method.notes: Tissue distribution in SD rats after oral dose
- Design: species or system SD rat
- particulars: male, SD, rat, in vivo, po, 5 mg/kg, male rat, PO 5 mg/kg, bladder; read-out: AUC0-t ratio of tissue/plasma
- Protocol: After blood collection, the rats were sacrificed, and 18 tissues, namely, brain, breast, skin, fat, testis, ovary, bladder, pancreas, skeletal muscle, heart, lung, kidney, liver, stomach, small intestine, colon, spleen, and spinal cord, were removed from the rats at designated time points. These tissues were washed with saline and dried with filter paper. […] (Cheongju-si, Korea). […] The weight of the collected samples was recorded. Samples were stored in a −20°C freezer until analysis.

[
  {
    "chem.smiles": "C[C@H](Nc1ncnc(N)c1C#N)c1cc2ncc(Cl)n2nc1-c1ccccc1",
    "Kp": 1.08
  }
]

* * *

- test.method.notes: Metabolic stability in mouse liver microsomes
- Type: in vitro ADME
- particulars: male, mouse, microsomes, pH 7.4, in vitro t1/2

[
  {
    "chem.smiles": "C[C@H](Nc1ncnc(N)c1C#N)c1cc2ncc(Cl)n2nc1-c1ccccc1",
    "half-life at 1 µM": "108 min"
  }
]

* * *

- test.method.notes: Tissue distribution in SD rats after oral dose
- Design: species or system SD rat
- particulars: male, SD, rat, in vivo, po, 5 mg/kg, male rat, PO 5 mg/kg, pancreas; read-out: AUC0-t ratio of tissue/plasma

[
  {
    "chem.smiles": "C[C@H](Nc1ncnc(N)c1C#N)c1cc2ncc(Cl)n2nc1-c1ccccc1",
    "Kp": 3.97
  }
]

* * *

- test.method.notes: Single-dose PK in cynomolgus monkeys (IV/PO)
- Type: in vivo, cynomolgus monkey
- particulars: both sexes, cynomolgus monkey, in vivo, iv, 1 mg/kg
readout.type: AUC(0-t) (ng·h/mL)

[
  {
    "chem.smiles": "C[C@H](Nc1ncnc(N)c1C#N)c1cc2ncc(Cl)n2nc1-c1ccccc1",
    "readout.value": 1490
  }
]

* * *

- test.method.notes: Single-dose PK and food effect in beagle dogs (IV/PO)
- Parameters: species or system beagle dog
- particulars: both sexes, beagle, dog, in vivo, po, 3.5 mg/kg
readout.type: MRT (h)

[
  {
    "molecule": "C[C@H](Nc1ncnc(N)c1C#N)c1cc2ncc(Cl)n2nc1-c1ccccc1 [Amdizalisib]",
    "readout.type": "MRT",
    "readout.unit": "h",
    "readout.value": 13.8
  }
]

* * *

- experimental.system: CYP1A2 (Homo sapiens)
- Sequence (P05177 1-516): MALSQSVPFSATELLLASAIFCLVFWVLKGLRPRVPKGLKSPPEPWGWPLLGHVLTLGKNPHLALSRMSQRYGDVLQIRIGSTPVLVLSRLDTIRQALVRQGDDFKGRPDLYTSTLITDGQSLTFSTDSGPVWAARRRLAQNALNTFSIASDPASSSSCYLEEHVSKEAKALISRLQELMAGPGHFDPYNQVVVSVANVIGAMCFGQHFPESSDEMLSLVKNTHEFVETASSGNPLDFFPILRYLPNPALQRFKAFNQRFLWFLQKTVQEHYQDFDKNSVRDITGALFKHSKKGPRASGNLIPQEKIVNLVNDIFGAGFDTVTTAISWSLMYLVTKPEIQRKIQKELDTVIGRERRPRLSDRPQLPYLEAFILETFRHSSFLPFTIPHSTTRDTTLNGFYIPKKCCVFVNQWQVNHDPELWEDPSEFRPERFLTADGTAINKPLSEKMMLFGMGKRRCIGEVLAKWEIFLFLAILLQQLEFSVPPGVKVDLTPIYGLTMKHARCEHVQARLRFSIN
readout.type: IC50

[
  {
    "compound": "C[C@H](Nc1ncnc(N)c1C#N)c1cc2ncc(Cl)n2nc1-c1ccccc1 [Amdizalisib]",
    "readout.value": "> 50 µM"
  }
]

* * *

- test.method.notes: Metabolic stability in rat liver microsomes
- Assay type: in vitro ADME
- particulars: female, rat, microsomes, pH 7.4, in vitro t1/2

[
  {
    "chem.smiles": "C[C@H](Nc1ncnc(N)c1C#N)c1cc2ncc(Cl)n2nc1-c1ccccc1",
    "readout.unit": "h",
    "half-life at 1 µM": 3.12
  }
]

* * *

- test.method.notes: Single-dose PK in cynomolgus monkeys (IV/PO)
- Format: in vivo, cynomolgus monkey
- particulars: both sexes, cynomolgus monkey, in vivo, iv, 1 mg/kg
readout.type: clearance (mL/min/kg)

[
  {
    "chem.smiles": "C[C@H](Nc1ncnc(N)c1C#N)c1cc2ncc(Cl)n2nc1-c1ccccc1",
    "readout.value": 11.3
  }
]

* * *

- experimental.system: BCRP (Homo sapiens, UniProt Q9UNQ0)
- Sequence (Q9UNQ0 1-655): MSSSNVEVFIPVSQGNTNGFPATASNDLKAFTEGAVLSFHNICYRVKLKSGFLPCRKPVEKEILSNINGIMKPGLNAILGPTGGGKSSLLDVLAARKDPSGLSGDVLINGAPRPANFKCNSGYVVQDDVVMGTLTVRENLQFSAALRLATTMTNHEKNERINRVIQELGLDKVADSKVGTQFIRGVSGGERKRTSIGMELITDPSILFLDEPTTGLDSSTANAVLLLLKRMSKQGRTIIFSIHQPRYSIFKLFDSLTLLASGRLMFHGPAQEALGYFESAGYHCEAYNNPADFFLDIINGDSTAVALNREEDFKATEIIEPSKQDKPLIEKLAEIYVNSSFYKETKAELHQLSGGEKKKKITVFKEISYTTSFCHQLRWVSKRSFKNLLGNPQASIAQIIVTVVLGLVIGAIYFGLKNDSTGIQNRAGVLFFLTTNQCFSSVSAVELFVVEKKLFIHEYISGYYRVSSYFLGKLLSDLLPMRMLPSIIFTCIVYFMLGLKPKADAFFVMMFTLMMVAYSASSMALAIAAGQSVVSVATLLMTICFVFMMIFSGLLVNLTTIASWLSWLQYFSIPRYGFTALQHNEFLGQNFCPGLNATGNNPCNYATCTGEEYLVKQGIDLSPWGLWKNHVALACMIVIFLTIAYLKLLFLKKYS
- test.method.notes: in vitro
- particulars: human
readout.type: inhibition at 60 min, 10 µM

[
  {
    "chem.smiles": "C[C@H](Nc1ncnc(N)c1C#N)c1cc2ncc(Cl)n2nc1-c1ccccc1",
    "readout.value": "43.6%"
  }
]

* * *

- test.method.notes: Single-dose PK and food effect in beagle dogs (IV/PO)
- Parameters: species or system beagle dog
- particulars: both sexes, beagle, dog, in vivo, iv, 0.5 mg/kg, Beagle dog, fasted, IV 0.5 mg/kg; read-out: t1/2 (converted)

[
  {
    "chem.smiles": "C[C@H](Nc1ncnc(N)c1C#N)c1cc2ncc(Cl)n2nc1-c1ccccc1",
    "half-life": "3.02 h"
  }
]

* * *

- test.method.notes: Single-dose PK and food effect in beagle dogs (IV/PO)
- Parameters: species or system beagle dog
- particulars: both sexes, beagle, dog, in vivo, po, 25 mg/kg, Beagle dog, fed, PO 25 mg/kg; read-out: t1/2 (converted)

[
  {
    "chem.smiles": "C[C@H](Nc1ncnc(N)c1C#N)c1cc2ncc(Cl)n2nc1-c1ccccc1",
    "readout.unit": "h",
    "half-life": 17.4
  }
]

* * *

- test.method.notes: Metabolic stability in mouse liver microsomes
- Type: in vitro ADME
- particulars: pH 7.4; female mouse liver microsomes, normal; read-out: Predicted CL int, iv vivo
readout.type: CLint scaled at 1 µM (mL/min/kg)

[
  {
    "compound": "C[C@H](Nc1ncnc(N)c1C#N)c1cc2ncc(Cl)n2nc1-c1ccccc1 [Amdizalisib]",
    "readout.unit": "mL/min/kg",
    "readout.value": 53.6
  }
]

* * *

- experimental.system: OATP1B3 (Homo sapiens)
- test.method.notes: in vitro
- particulars: human, pH 7.4

[
  {
    "molecule": "C[C@H](Nc1ncnc(N)c1C#N)c1cc2ncc(Cl)n2nc1-c1ccccc1 [Amdizalisib]",
    "inhibition at 5 min, 100 µM, %": 104
  }
]

* * *

- test.method.notes: Tissue distribution in SD rats after oral dose
- Parameters: species or system SD rat
- particulars: male, SD, rat, in vivo, po, 5 mg/kg, Cmax
readout.type: Cmax (ng/mL)

[
  {
    "chem.smiles": "C[C@H](Nc1ncnc(N)c1C#N)c1cc2ncc(Cl)n2nc1-c1ccccc1",
    "readout.value": 394
  }
]

* * *

Reported inhibition at 5 min, 10 µM values are given for each entry in this list.
- experimental.system: OATP1B3 (Homo sapiens)
- Sequence (Q9NPD5 1-702): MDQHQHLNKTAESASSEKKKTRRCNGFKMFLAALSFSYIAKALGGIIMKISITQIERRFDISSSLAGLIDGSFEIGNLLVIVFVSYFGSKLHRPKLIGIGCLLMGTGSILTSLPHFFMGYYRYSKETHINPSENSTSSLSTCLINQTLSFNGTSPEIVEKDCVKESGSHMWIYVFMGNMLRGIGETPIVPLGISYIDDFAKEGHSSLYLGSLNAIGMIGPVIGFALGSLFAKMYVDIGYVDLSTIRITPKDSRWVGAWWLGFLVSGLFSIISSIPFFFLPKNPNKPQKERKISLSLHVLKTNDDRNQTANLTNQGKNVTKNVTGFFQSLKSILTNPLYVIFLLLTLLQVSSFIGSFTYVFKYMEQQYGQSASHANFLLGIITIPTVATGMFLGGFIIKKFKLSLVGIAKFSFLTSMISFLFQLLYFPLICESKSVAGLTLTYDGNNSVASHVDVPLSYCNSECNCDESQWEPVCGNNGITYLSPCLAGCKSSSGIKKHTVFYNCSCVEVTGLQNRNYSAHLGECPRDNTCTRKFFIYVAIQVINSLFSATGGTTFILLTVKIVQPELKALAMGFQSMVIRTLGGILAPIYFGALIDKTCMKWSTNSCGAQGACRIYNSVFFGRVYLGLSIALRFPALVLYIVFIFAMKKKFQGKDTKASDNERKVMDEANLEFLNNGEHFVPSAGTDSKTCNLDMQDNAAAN
- test.method.notes: in vitro
- particulars: human, pH 7.4

[
  {
    "compound": "CO[C@H]1/C=C/O[C@@]2(C)Oc3c(C)c(O)c4c(O)c(c(/C=N/N5CCN(C)CC5)c(O)c4c3C2=O)NC(=O)/C(C)=C\\C=C\\[C@H](C)[C@H](O)[C@@H](C)[C@@H](O)[C@@H](C)[C@H](OC(C)=O)[C@@H]1C [Rifampicin, reference compound]",
    "readout.unit": "%",
    "inhibition at 5 min, 10 µM": 100
  },
  {
    "compound": "C[C@H](Nc1ncnc(N)c1C#N)c1cc2ncc(Cl)n2nc1-c1ccccc1 [Amdizalisib]",
    "readout.unit": "%",
    "inhibition at 5 min, 10 µM": 70.7
  }
]
